pIC50: −log10 of the molar value.
Measurement record for Epidermal growth factor receptor (Homo sapiens); quantity recorded: pIC50.
outcome.measure: pIC50

Here is how some molecules turned out for pIC50.
smiles.record	outcome.measure	value.measured
Cc1ccc(/C=C/C(=O)OCCn2c([N+](=O)[O-])cnc2C)cc1	pIC50	5.09
Cc1ncc([N+](=O)[O-])n1CCOC(=O)/C=C/c1ccccc1Br	pIC50	4.61

I = COc1cccc(/C=C/C(=O)OCCn2c([N+](=O)[O-])cnc2C)c1
II = Cc1ncc([N+](=O)[O-])n1CCOC(=O)/C=C/c1ccc(C(C)C)cc1
So which one has the bigger pIC50 here, I or II ? Identify your selection by its label.
II
(II: 5.17, I: 4.86)
